Assign Kd to each entry below.
# study.target: T1, Recombinant His-tagged human CD36.ECD protein (Sino Biological) (human, UniProt P16671 30-439)
# T1 construct: Bought protein; also called hCD36.ECD; hCD36; not shown: His tag
# T1 sequence (P16671 30-439 limits assumed): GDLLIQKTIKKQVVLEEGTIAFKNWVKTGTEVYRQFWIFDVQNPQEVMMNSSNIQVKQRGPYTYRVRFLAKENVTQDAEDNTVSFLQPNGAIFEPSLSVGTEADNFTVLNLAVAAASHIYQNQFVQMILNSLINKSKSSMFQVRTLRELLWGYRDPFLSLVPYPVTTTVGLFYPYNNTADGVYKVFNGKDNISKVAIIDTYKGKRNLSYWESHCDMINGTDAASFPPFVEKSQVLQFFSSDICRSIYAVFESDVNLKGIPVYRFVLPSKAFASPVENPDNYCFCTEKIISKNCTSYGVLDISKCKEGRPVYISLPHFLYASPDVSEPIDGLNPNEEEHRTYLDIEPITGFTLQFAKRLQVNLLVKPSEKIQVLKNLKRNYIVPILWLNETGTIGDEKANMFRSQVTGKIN
# method.notes: BLI (Octet), antibody on AHC sensor, His-tagged hCD36.ECD in solution, 1:1 fit
Answers are plain numbers, in nM.

Take a look at these entries with their results.
• 117_30DA (IgG4) (antibody, V domains shown, Human IgG4-S228P-FALA, kappa) VH: EVQLVESGGGLVQPGGSLRLSCAASGFTIDAFGIHWVRQAPGKGLEWVAWIAPYGGYTYYADSVKGRFTISADTSKNTAYLQMNSLRAEDTAVYYCARSFFGYFDYWGQGTLVTVSS VL: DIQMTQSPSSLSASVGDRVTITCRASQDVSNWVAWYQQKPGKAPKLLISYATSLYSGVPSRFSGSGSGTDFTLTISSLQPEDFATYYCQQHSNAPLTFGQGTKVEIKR = 3.91
• 117_DA57D (IgG4) (antibody, V domains shown) VH: EVQLVESGGGLVQPGGSLRLSCAASGFTIDAFGIHWVRQAPGKGLEWVAWIAPYGGDTYYADSVKGRFTISADTSKNTAYLQMNSLRAEDTAVYYCARSFFGYFDYWGQGTLVTVSS VL: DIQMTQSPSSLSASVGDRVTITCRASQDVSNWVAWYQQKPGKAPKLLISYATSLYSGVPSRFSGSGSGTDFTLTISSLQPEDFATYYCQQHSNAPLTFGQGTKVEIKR = 2.64
• 117_54E (IgG1) (antibody, V domains shown) VH: EVQLVESGGGLVQPGGSLRLSCAASGFTISSFGIHWVRQAPGKGLEWVAWIAPEGGYTYYADSVKGRFTISADTSKNTAYLQMNSLRAEDTAVYYCARSFFGYFDYWGQGTLVTVSS VL: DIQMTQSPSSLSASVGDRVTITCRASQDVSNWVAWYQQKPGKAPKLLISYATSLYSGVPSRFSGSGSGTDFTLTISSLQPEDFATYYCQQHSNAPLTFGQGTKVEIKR = 4.16
• 12P109 (antibody, human IgG1, kappa, N297A, V domains shown, Full-length human IgG1-N297A, kappa; also called 12P109 (IgG1)) VH: EVQLVESGGGLVQPGGSLRLSCAASGFTISSFGIHWVRQAPGKGLEWVAWIAPYGGYTYYADSVKGRFTISADTSKNTAYLQMNSLRAEDTAVYYCARSFFGYFDYWGQGTLVTVSS VL: DIQMTQSPSSLSASVGDRVTITCRASQDVSNWVAWYQQKPGKAPKLLISTSTSLYSGVPSRFSGSGSGTDFTLTISSLQPEDFATYYCQQYYTLPFTFGQGTKVEIKR = 18.5
• 117_DA57E (IgG4) (antibody, V domains shown, Human IgG4-S228P-FALA, kappa) VH: EVQLVESGGGLVQPGGSLRLSCAASGFTIDAFGIHWVRQAPGKGLEWVAWIAPYGGETYYADSVKGRFTISADTSKNTAYLQMNSLRAEDTAVYYCARSFFGYFDYWGQGTLVTVSS VL: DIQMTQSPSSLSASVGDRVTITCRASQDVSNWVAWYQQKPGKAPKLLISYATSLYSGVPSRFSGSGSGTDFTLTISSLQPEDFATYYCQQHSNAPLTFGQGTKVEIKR = 2.52

List the reported Kd of each binder below.
1. 117_30AA (IgG4) (antibody, V domains shown, Human IgG4-S228P-FALA, kappa) VH: EVQLVESGGGLVQPGGSLRLSCAASGFTIAAFGIHWVRQAPGKGLEWVAWIAPYGGYTYYADSVKGRFTISADTSKNTAYLQMNSLRAEDTAVYYCARSFFGYFDYWGQGTLVTVSS VL: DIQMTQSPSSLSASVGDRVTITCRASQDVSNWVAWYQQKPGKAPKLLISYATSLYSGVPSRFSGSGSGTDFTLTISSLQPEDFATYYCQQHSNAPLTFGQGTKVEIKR
2. A8A (antibody, human IgG1, kappa, N297A, V domains shown, Full-length human IgG1-N297A, kappa; also called A8A (IgG1)) VH: EVQLVESGGGLVQPGGSLRLSCAASGFTISSFGIHWVRQAPGKGLEWVAWIAPYGGYTYYADSVKGRFTISADTSKNTAYLQMNSLRAEDTAVYYCARSFFGYFDYWGQGTLVTVSS VL: DIQMTQSPSSLSASVGDRVTITCRASQDVSNWVAWYQQKPGKAPKLLISYANSLYSGVPSRFSGSGSGTDFTLTISSLQPEDFATYYCQQHSNLPLTFGQGTKVEIKR

Result:
1: 5.74; 2: 3.42

Value source: patent US20250206837A1
